- target.or.system: Zap-70 (Homo sapiens)
- Construct: Kinases are expressed as either kinase domains or full length constructs; made in house
- Sequence (P43403 whole entry, species assumed, the tested form may be a part): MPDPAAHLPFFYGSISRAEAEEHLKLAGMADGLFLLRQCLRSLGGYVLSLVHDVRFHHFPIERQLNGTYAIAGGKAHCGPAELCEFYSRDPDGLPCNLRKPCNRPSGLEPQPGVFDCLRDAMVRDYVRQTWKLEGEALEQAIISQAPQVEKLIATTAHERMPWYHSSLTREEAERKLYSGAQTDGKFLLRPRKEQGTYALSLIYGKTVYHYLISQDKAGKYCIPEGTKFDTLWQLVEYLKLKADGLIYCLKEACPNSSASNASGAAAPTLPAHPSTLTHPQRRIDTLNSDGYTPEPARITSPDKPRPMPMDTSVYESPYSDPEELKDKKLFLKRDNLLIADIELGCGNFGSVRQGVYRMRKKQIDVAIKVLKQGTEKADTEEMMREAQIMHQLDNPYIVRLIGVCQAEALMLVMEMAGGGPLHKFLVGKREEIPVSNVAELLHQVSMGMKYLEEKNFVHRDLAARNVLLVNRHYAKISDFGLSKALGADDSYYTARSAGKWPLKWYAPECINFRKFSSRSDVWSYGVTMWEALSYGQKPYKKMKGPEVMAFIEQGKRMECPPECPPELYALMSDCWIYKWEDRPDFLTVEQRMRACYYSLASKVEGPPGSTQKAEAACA
- method: Kinase inhibition assay (33P transfer), Zap-70
- Type: biochemical
- settings: read-out: Zap-1
Recorded IC50 by entry

Worked examples, 10 compounds total:
compound: NC(=O)Cc1cccc(Nc2ncnc(Nc3cc(-c4ccccc4)n[nH]3)n2)c1 [Compound 578]
observed.measurement: > 11.6 µM

compound: COc1ccc(Nc2ncnc(-n3c(=O)[nH]c4ccccc43)n2)cn1 [Compound 489]
observed.measurement: > 13.4 µM

compound: COc1cc(Nc2ncnc(-n3c(NCc4ccc(F)cc4)nc4ccccc43)n2)cc(OC)c1OC [Compound 514]
observed.measurement: > 8.97 µM

compound: COc1cc(Nc2ncnc(-n3c(N)nc4ccccc43)n2)cc(OC)c1 [Compound 477]
observed.measurement: > 12.4 µM

compound: Cc1ccc2c(c1)CCCN2c1ncnc(NCc2ccccn2)n1 [Compound 769]
observed.measurement: > 13.5 µM

compound: COc1cc(Nc2ncnc(-c3ccc(NCCCN)nc3)n2)cc(OC)c1OC [Compound 472]
observed.measurement: > 10.9 µM

compound: COc1cc(Nc2ncnc(-n3c(Nc4ccc(OC(F)(F)F)cc4)nc4ccccc43)n2)cc(OC)c1OC [Compound 1050]
observed.measurement: > 8.13 µM

compound: COc1cc(Nc2ncnc(-c3c(O)[nH]c4ccc(Cl)cc34)n2)cc(OC)c1OC [Compound 517]
observed.measurement: > 10.5 µM

compound: COc1cc(Nc2ncnc(-n3c(N)nc4ccccc43)n2)ccc1OCCN1CCOCC1 [Compound 650]
observed.measurement: > 9.73 µM

compound: O=c1[nH]c2ccccc2n1-c1ncnc(Nc2ccc3[nH]ncc3c2)n1 [Compound 685]
observed.measurement: > 13.1 µM

Task: Requested field: IC50. Item: CN(c1cccc(Cl)c1)c1ncnc(Cl)n1 [Compound 701]
Result: > 17.6 µM

Task: Next: COc1cc(Nc2ncnc(-c3cccnc3Cl)n2)cc(OC)c1OC [Compound 1075]
Result: > 12 µM

Task: Request: COc1cc(Nc2ncnc(Nc3cc(-c4cccc(C)c4)n[nH]3)n2)cc(OC)c1OC [Compound 1001]
Result: > 10.4 µM

Task: Thanks! And COc1cc(Nc2ncnc(-n3c(NCc4ccccn4)nc4ccccc43)n2)cc(OC)c1OC [Compound 414] ?
Result: > 9.29 µM
